This collection of values is drawn from PubChem BioAssay (NCI).

Tested on: SF-539 CNS
assay: NCI-60 one-dose screen, 48 h
condition: 10 µM unless noted
Method: Cells are grown in 96 well plates and exposed to the test compound for 48 hours. Compounds are tested at a single concentration, which is 10^-5 M for most compounds. The reported endpoint is percent growth (GI% or GIPRCNT), where numbers from 0 - 100% represent growth inhibition, and numbers from -100% - 0 represent cell death. For example, a value of 40 represents 60% growth inhibition. A value of 0 means no net growth occurred over the course of the experiment. […]
The panel holds about 83,000 compounds, 20% with a hit somewhere; the sample as a whole holds those more often. Calls of active or inactive are those of the source. The calls were made as follows: active = growth percent below 10; inactive = the rest.
Form entry, call: pick from TRUE = active, FALSE = inactive

Called result for N/C(=N\N=C\c1ccc([N+](=O)[O-])cc1)c1c(N)nc(=S)[nH]c1-c1ccc(Cl)cc1Cl
FALSE

How was CCOC(=O)C1=C(N)N(c2ccccc2)C2=C(C(=O)CC(C)(C)C2)C1c1cccc(Cl)c1Cl (stereo not drawn) classified in this test?
FALSE

In this assay, the call recorded for O=C1CC(Sc2n[nH]c(-c3ccncc3)n2)C(=O)N1c1ccc(Br)cc1 (stereo not drawn) was what?
FALSE

Kindly provide the recorded test outcome for the following compound: Cc1ccc(-c2nc(Nc3ccccc3S(N)(=O)=O)c3ccccc3n2)cc1
TRUE

What call does the record list for O=c1oc2ccc(Br)cc2cc1C1=CSc2nc3sc4c(c3c(=O)n2N=C1)CCCC4 ?
FALSE

Recorded call for N/C(=N\c1nc2ccccc2s1)NC(=O)NCCCCCCO ?
FALSE

Look up the recorded call for CC(=O)OC[C@@]1(C)C2CC[C@]3(C)C(CC=C4C5CC(C)(C)CC[C@]5(C(=O)Nc5cccc(C)c5)CC[C@]43C)[C@@]2(C)C[C@@H](OC(C)=O)[C@@H]1OC(C)=O (stereo partly drawn) in this test.
FALSE

What was the test verdict on C=C1CC[C@@H]2[C@]3(C)COC(c4cn(-c5ccccc5)nc4-c4cccc([N+](=O)[O-])c4)O[C@@H]3CC[C@@]2(C)[C@@H]1C/C=C1/C(=O)OC[C@H]1O (stereo partly drawn) ?
TRUE

###

Test system: PC-3 prostate
assay: NCI-60 one-dose screen, 48 h (100 = growth as untreated, 0 = no growth, -100 = all killed)
condition: 10 µM unless noted
About 83,000 compounds went through this panel and 20% of them were active in at least one assay; those are over-represented in the sample as a whole.
What growth was measured for each of the following?
Number only, in %; omit the unit.

Quick check: growth on PC-3 prostate, item Cn1cc(-c2cc3nc(-c4c[nH]c5ccc(Br)cc45)cc(N)n3n2)c2ccccc21 ?
-77.3

GET /values?readout=growth&system=PC-3 prostate&item= Clc1cccc(-c2ccc(OCCCN3CCN(c4ccncc4)CC3)cc2)c1
-8.32

Value wanted: growth (PC-3 prostate) of entry CC(=O)Oc1ccccc1C(=O)[Se]CC(=O)Nc1cccc(C(F)(F)F)c1
24.9

Report growth for COc1ccc(C(=O)Nc2n[nH]c(Nc3ccccc3)c2C#N)cc1 tested on PC-3 prostate.
111

Quick check: growth on PC-3 prostate, item COc1ccc2[nH]cc(-c3nnc(N)nc3-c3c[nH]c4ncc(Br)cc34)c2c1 ?
110

###

Tested on: K-562 leukemia
assay: NCI-60 one-dose screen, 48 h (100 = growth as untreated, 0 = no growth, -100 = all killed)
condition: 10 µM unless noted
About 83,000 compounds went through this panel and 20% of them were active in at least one assay; those are over-represented in the sample as a whole.
Decide using growth: a value greater than or equal to 30% is condition met, a smaller one is condition not met.

Quick check: does COc1ccc(-c2nc(SC(C)C)nc(NCCc3c[nH]c4ccccc34)c2C#N)cc1 have growth greater than or equal to 30%?
condition not met

Has Cc1cc(C)cc(C(=O)Nc2cccc(-c3cn(-c4ccc(S(N)(=O)=O)cc4)nn3)c2)c1 a recorded growth greater than or equal to 30%?
condition not met

Say whether CCOc1ccc(-c2c(C#N)c(-c3ccc(Cl)cc3)nc3n[nH]c(-c4ccc(Cl)cc4)c23)cc1OC shows growth of 30% or more.
condition not met

Could you please find out whether COc1ccc(/C=C/c2nc3ccccc3c(=O)n2CC(=O)Nc2ccc(OC)cc2)cc1 has growth that meets 30% or exceeds it?
condition met

Would you say C=C1CC[C@@H]2[C@]3(C)COC(c4cn[nH]c4-c4ccc(F)cc4)O[C@@H]3CC[C@@]2(C)[C@@H]1C/C=C1/C(=O)OCC1O (stereo partly drawn) shows growth at minimum 30%?
condition not met

Confirm if growth reported for the compound COc1cc(NC(=O)c2cccc(C3CCc4c(cc(OC)c(OC)c4OC)O3)c2)cc(OC)c1OC (stereo not drawn) is 30% or above.
condition not met

Please tell me: is the compound N#Cc1c(-c2ccc(Br)cc2)nc2n[nH]c(-c3ccc(Br)cc3)c2c1-c1ccc(F)cc1 at or over 30% in terms of growth?
condition met

Does the reported growth for Cc1ccc(C(=O)CSc2nc3ccc(F)cc3c(=O)n2-c2ccc(Cl)cc2)cc1 fall at or above the 30% mark?
condition met

Hello, I need to know if COc1cc(C2CC(c3cc(OC)c(OC)c(OC)c3)=Nc3c(N)nc(N)nc3N2)ccc1Oc1nc(NCCO)nc(N2CCOCC2)n1 (stereo not drawn) has measured growth not below 30%. Thanks!
condition met

Is growth at least 30%? Consider COC1=C[C@]23CCC(=O)N2CCc2cc4c(cc2[C@@H]3[C@@H]1OC(=O)[C@H](C)O)OCO4
condition not met

Evaluate CN(C)CCn1c2ccccc2c2nc3ccc([N+](=O)[O-])cc3nc21 : growth at minimum 30%?
condition not met

Dear colleague, could you confirm whether OCC1(CCCc2ccccc2)CCCN(c2nccc3ccccc23)C1 (stereo not drawn) has growth at or above 30%?
condition not met

Check if growth >= 30% (inclusive). Item: CN(C)c1nc(NCCNS(=O)(=O)c2ccc(C3=Nc4c(N)nc(N)nc4NC(c4ccc(Cl)cc4)C3)cc2)nc(Nc2ccc(F)cc2)n1 (stereo not drawn)
condition not met

Confirm if growth reported for the compound COc1ccc2[nH]c(O)c(N=NC(=O)Cn3c(-c4ccccc4)nc4cc(C)ccc43)c2c1 is 30% or above.
condition not met

// inclusive: growth at least 30%? input: Cn1cc(-c2nc(N)nnc2-c2c[nH]c3ccc(Br)cc23)c2cccnc21
condition not met

Is growth for CN1CCc2c(sc3ncnc(N/N=C/c4ccc(Cl)cc4Cl)c23)C1 at or above 30%?
condition not met
